- Experiment: protein stability index of a GFP-peptide fusion (yeast GPS) (PSI 1-4); higher = more stable; sorted into four equal gates, so the index is relative within each strain
- Measurement Context: pdr5∆
Catalogue of protein stability index readings, one per entry.
Assay Metric: protein stability index

| Input Sequence | Assay Metric | Recorded Number |
| --- | --- | --- |
| LFHSCTRIQYVDFACCT [GRR1] | protein stability index | 2.44 |
| QMTQIMDIMEDFLRYIN [SNF2] | protein stability index | 1.33 |
| DDLQKFNGIENQSAYEW [ISW2] | protein stability index | 3.23 |

###

- Experiment: protein stability index of a GFP-peptide fusion (yeast GPS) (PSI 1-4); higher = more stable; sorted into four equal gates, so the index is relative within each strain
- Measurement Context: ubr1∆

| Input Sequence | protein stability index |
| --- | --- |
| KLHHDLKLCLGDHSSVP [YMR129W/POM152] | 2.96 |
| QVLFQGLIYSFNEENGE [POP1] | 3.02 |
| AFSSVEHIIRDVHNGYI [COB] | 2.99 |
| KTAPIQESFVPNSERSG [YOR098C/NUP1] | 3.03 |
| NKEGTLEQREQNENLPS [SSN2] | 3.05 |
| IDYALTAVKQGVTSLGI [PRE8] | 1.62 |
| IGTINSIVHINSQERVQ [SIR2] | 1.95 |
| AAESKKYRQTKLSKEER [RPL5] | 3.06 |
| QSEHLEAVVDQDVQRTC [FAS1] | 3.38 |
| DYCRILSDIETAVNGID [YGL172W/NUP49] | 2.71 |
| NVASLVRVQFQFTGFLL [GRR1] | 1.55 |
| LSNPSNQNICTSVTRRS [GRR1] | 2.53 |

Entry source: the supplement of paper PMC9732359
